Provenance of the data: patent US20160251341A1

This section lists pIC50 readings for Human thrombin (Homo sapiens, UniProt P00734).
pIC50: −log10 of the molar value. Where a name gives a salt, the structure may show the parent alone.

| compound | result |
| --- | --- |
| O=C(c1cccc2c1OCCO2)n1nc(C2CCNCC2)nc1NCc1ccc(Cl)s1 [Entry 35, hydrochloride] | ≥ 7.00 |
| Nc1nc(C2CCOC2)n[nH]1 (stereo not shown) | ≤ 4.00 |
| O=C(c1cccc2c1OCCO2)n1nc(C2CCCO2)nc1NCc1ccc(Cl)s1 (stereo not shown) | ≥ 7.00 |
| O=C(C1CCCCC1)n1nc(C2CNC2)nc1NCc1ccc(Cl)s1 | 6.00 to 7.00 |
| COC1CCCCC1c1n[nH]c(NCc2ccc(Cl)s2)n1 (stereo not shown) | 5.00 to 6.00 |
| OC1=C(c2n[nH]c(NCc3ccccc3)n2)CCCC1 | ≤ 4.00 |
| CC(C)(C)OC(=O)N1CCC(c2n[nH]c(NCc3ccc(Cl)s3)n2)CC1 | ≤ 4.00 |
| COc1ccccc1C(=O)n1nc(C2CCN(S(=O)(=O)c3ccccc3)CC2)nc1NCc1ccc(Cl)s1 | ≥ 7.00 |

Query block: Check Human thrombin (Homo sapiens, UniProt P00734) data and give pIC50 for O=C(c1ccsc1)n1nc(C2CCOCC2)nc1NCc1ccc(Cl)s1 .
Result block: ≥ 7.00

Query block: Give reported pIC50 for COc1ccc(C(=O)n2nc(C3CCCO3)nc2NCc2ccc(Cl)s2)c(OC)c1 (stereo not shown) (Human thrombin (Homo sapiens, UniProt P00734))
Result block: ≥ 7.00

Query block: Output reported pIC50 of the compound O=C(c1ccoc1)n1nc(C2CCCO2)nc1NCc1ccc(Cl)s1 (stereo not shown) on Human thrombin (Homo sapiens, UniProt P00734).
Result block: ≥ 7.00

---

- system tested: Human thrombin (Homo sapiens, UniProt P00734)
Counter-ions that a name gives are not always drawn.
Entries and their IC50

| compound | IC50 |
| --- | --- |
| Nc1nc(C2CCOCC2)n[nH]1 | ≥ 100 µM |
| COc1ccccc1C(=O)n1nc(C2CN(C(=O)OC(C)(C)C)C2)nc1NCc1ccc(Cl)s1 | ≤ 0.1 µM |
| COc1ccccc1C(=O)n1nc(C2CCOCC2)nc1NCc1ccc(Cl)s1 | ≤ 0.1 µM |
| O=C(c1cccc2c1OCCO2)n1nc(C2CCOCC2)nc1NCc1ccc(Cl)s1 | ≤ 0.1 µM |
| COc1ccccc1C(=O)n1nc(C2CN(S(=O)(=O)C3CCCCC3)C2)nc1NCc1ccc(Cl)s1 | ≤ 0.1 µM |

Query block: Return IC50 for the following compound: COc1ccccc1C(=O)n1nc(C2CCN(C(=O)N3CCCCC3)CC2)nc1NCc1ccc(Cl)s1
Result block: ≤ 0.1 µM

Query block: Give me measured IC50, please, for this compound: c1ccc(CNc2nc(C3CCOCC3)n[nH]2)cc1
Result block: ≥ 100 µM

Query block: Specify IC50 for O=C(c1ccccc1)n1nc(C2CCNCC2)nc1NCc1ccc(Cl)s1 [Entry 15, hydrochloride] and stop.
Result block: ≤ 0.1 µM
